Where do the numbers come from? From ChEMBL document CHEMBL1201862.

Tested on: OVCAR-8
measurementNotes: NCI tumour cell line growth inhibition, 48 h
The source made the active and inactive calls. Cut-off read from the data, not from the text of the source: active = GI50 up to about 1.1 µM and inactive = higher.
Reply using exactly one outcome from yes (active), no (inactive)

Below are worked cases with known answers.
Per the records of this test, what outcome belongs to `C1CSC2=C(S1)SC1=C(S2)SC(=C2SC3=C(SC4=C(SCCS4)S3)S2)S1` ?
no

State the result this test recorded for `COCN(CCC1=CCCCC1)C(=O)OC` .
no

Entry O=C(CC(=O)Nc1ccccc1)NNC(c1cc(/N=N/c2ccc(Br)cc2)ccc1O)P(O)O (stereo unspecified) : call = ?
yes

Tell me the recorded outcome of this test for `[N-]=[N+]=NC[C@H]1OCO[C@H](CN=[N+]=[N-])[C@@H](OCCOCCCl)[C@@H]1OCCOCCCl` .
no

Entry `COC(=O)C1(C(=O)OC)CC2=C(S(=O)(=O)c3ccccc3)C[C@H](C#N)[C@H]2C1` : call = ?
no

***
// outcome(item) with item = O=C1NC(=O)C2C1c1[nH]c3ccccc3c1C1CCCC12 (stereo unspecified)
no

// return assay outcome for NC(=O)C(c1ccccc1)N1CCOCC1 (stereo unspecified)
no

Could you kindly confirm the outcome this assay logged for `COc1cc(Cl)cc(N(O)C(C)=O)c1OCc1ccccc1` ?
no

Could you kindly confirm the outcome this assay logged for `Cc1c(C(=O)Nc2ccccc2)nnn1-c1ccnc2cc(C(F)(F)F)ccc12` ?
no

Dear colleague, could you share the recorded outcome for `Cc1cc2[nH]c3[nH]c(=O)[nH]c(=O)c3c2cc1C` when you have a moment?
no

Kindly provide the recorded test outcome for the following compound: `O=C(CSCC(=O)N/N=C\c1cccc(Br)c1)N/N=C\c1cccc(Br)c1`
no

====

Test system: EKVX
measurementNotes: NCI tumour cell line growth inhibition, 48 h
Activity calls are given as the source filed them. Rule as the data show it: active = GI50 up to about 1.1 µM and inactive = higher.
Exercise: state measured GI50 for each of the compounds provided.

Provide only the value of recorded GI50 for `O=[N+]([O-])c1cccnc1-n1cnc2ccccc21`
> 100 µM (inactive)

// for each compound in input: emit GI50
1. C[N+](C)(CCNC(=O)c1cccc2cc3ccccc3nc12)Cc1ccc([N+](=O)[O-])cc1
2. O=C1C(=O)N(C(=O)c2ccc(Cl)c(Cl)c2)c2ccc(Cl)cc21
3. CCOC(=O)C1C(=O)CC(O)(OCC)C(C(=O)OCC)C1c1ccc(OC)cc1 (stereo not given)

> 100 µM (inactive)
74 µM (inactive)
> 100 µM (inactive)

====

Give measured GI50 for each item. Keep answers brief.
System: NCI-H226
measurementNotes: NCI tumour cell line growth inhibition, 48 h
Active and inactive are the calls of the source. Cut-off read from the data, not from the text of the source: active = GI50 up to about 1.1 µM and inactive = higher. Where a SMILES comes first, the peptide text is derived from it.

Worked cases, answers included:
# return GI50 of `C/C(=C\COP(=O)(O)OP(=O)(O)O)CC/C=C(\C)CNc1c(F)c(F)c(F)c(F)c1F` (system: NCI-H226)
20.3 µM (inactive)

State GI50 on NCI-H226. Entry: NC(C(=O)O)C(N)C(=O)O (centres undefined)
> 100 µM (inactive)

Supply GI50 measured with NCI-H226 for CC(C)CC(NC(=O)C(Cc1ccccc1)NC(=O)C(Cc1c[nH]c2ccccc12)NC(=O)CNC(=O)C(N)Cc1ccc(O)cc1)C(=O)O (centres undefined) (H-YGWFL-OH; configuration not given here) .
46.8 µM (inactive)

Note: attention shifts to another entry.
Specify the recorded GI50 for `Cc1ccc(C2=NN=C3C(c4ccccc4)=Nc4ccccc4N3C2)cc1` , system: NCI-H226.
12.9 µM (inactive)

====

Tested on: HT-29
measurementNotes: NCI tumour cell line growth inhibition, 48 h
Calls of active or inactive are those of the source. No stated cut-off is given here; in the data, active = GI50 up to about 1.1 µM and inactive = higher.
Select the matching outcome among active, inactive

What classification did `CCOC(=O)c1ccc(-c2cc(C)[nH]n2)[nH]1` end up with in this test?
inactive

# lookup: test call for CC(C)(C)c1cc(C2c3cc4c(cc3OC(O)(CO)C2C(=O)O)OCO4)cc(C(C)(C)C)c1O.CC(C)(C)c1cc(C2c3cc4c(cc3OC3(O)COC(=O)C23)OCO4)cc(C(C)(C)C)c1O (configuration not stated)
inactive

---
# lookup: test call for O=C1NC(=O)C2C1c1[nH]c3ccccc3c1C1CCCC12 (configuration not stated)
inactive

I'd appreciate the recorded outcome for `Cc1ccccc1NC(=O)c1ccc([N+](=O)[O-])cc1` from this test.
inactive

// param item: `O=c1n(CCO)nc2n1CCCN2` ; yields the recorded call
inactive

Hey, what did the test say about `O=c1c(F)cn(Cc2c(Cl)cccc2Cl)c(=O)n1Cc1c(Cl)cccc1Cl` ?
inactive

What did this assay record as the result for `Cc1ccc(NC(=O)C(=O)C2C(=O)NC(=O)NC2=O)c(C)c1` ?
inactive

====

System: HL-60
measurementNotes: NCI tumour cell line growth inhibition, 48 h
Activity calls are given as the source filed them. Rule as the data show it: active = GI50 up to about 1.1 µM and inactive = higher.
Choose the fitting class; nothing outside class 1 (active), class 0 (inactive) is accepted.

For CN(C)c1ccc(/C=C(\NC(=O)c2ccccc2)C(=O)NC(Cc2c[nH]c3ccccc23)C(=O)O)cc1 (centres undefined) , which call appears in the assay record?
class 0

// return assay outcome for CC1CCCP(=O)(c2ccccc2)CCC1 (centres undefined)
class 0

# outcome recorded in this test, key = CN(CN1C(=O)C2Cc3ccccc3CN2C1=O)c1ccccn1 (centres undefined)
class 0

Hi, do you know how `CC(C)(C)[C@H]1CO[C@]2(c3ccccc3)[C@@H]3C[C@@H]3C(=O)N12` came out in this test?
class 0

# outcome recorded in this test, key = O=C1NC(=O)C2C1c1[nH]c3ccccc3c1C1CCCC12 (centres undefined)
class 1

So what was the verdict on `N/C(=N\Nc1ccc(Cl)cc1)c1cnccn1` in this test?
class 0

What did this assay record as the result for `COc1cc([N+](=O)[O-])c(S(=O)(=O)O)cc1-n1nc(C(=O)Nc2ccccc2)n[n+]1-c1cc(S(=O)(=O)[O-])c([N+](=O)[O-])cc1OC` ?
class 0

Hello, I am checking results. What call was entered for CCOC(=O)c1c(-c2ccc(Cl)cc2)c(C#N)c(=S)n(C2OC(COC(C)=O)C(OC(C)=O)C(OC(C)=O)C2OC(C)=O)c1C (centres undefined) ?
class 0

For COc1cc(C2c3cc4c(cc3OC3(OC)COC(=O)C23)OCO4)cc(OC)c1OC (centres undefined) , which call appears in the assay record?
class 1

Write down the call the test reported for this compound. Item: `COc1cc(/C=C/C(=N\NS(=O)(=O)c2ccc(C)cc2)c2sc(NNC(C)=O)nc2C)ccc1O`
class 0

Query: recorded result category for COC(=O)C(CCSC)NC(=O)Cc1ccc(C(=O)c2ccccc2)cc1 (centres undefined) in this test
class 0

// param item: `NCCSS(=O)(=O)CCN` ; yields the recorded call
class 0

Short answer needed: outcome of this test for `O=CC1=CCCC2(C1)OCCO2` ?
class 0

Recorded test outcome, item `CC(C)/C(Cl)=N\OC(=O)Nc1ccccc1F`
class 0

====

Tested on: U-251
measurementNotes: NCI tumour cell line growth inhibition, 48 h
Active and inactive are the calls of the source. No stated cut-off is given here; in the data, active = GI50 up to about 1.1 µM and inactive = higher.
Respond with a class label; see active, inactive

Short answer needed: outcome of this test for C=C1CCCC2[C@](C)(CC3=C(O)C(=O)C=C(OC)C3=O)[C@@H](C)CC[C@]12C (stereo partly drawn) ?
inactive

Answer briefly: the call reported for `O=C1C(=O)N(C(=O)c2ccc(Cl)c(Cl)c2)c2ccc(Cl)cc21` in this assay.
inactive

Just curious, what result did C/C(O)=C/C(=O)c1[nH]c(C(=O)O)cc1C1CCN(Cc2ccccc2)C1=O (stereo not drawn) get here?
inactive

Continuing:
What outcome does the record of this test show for `CN(C)Cc1ccc(O)c(CN(C)C)n1` ?
inactive

Please state the recorded outcome for this molecule: `CC(=O)OC1=C(CC(C)(C)C)C(=O)c2ccccc2C1=O`
inactive

Recorded test outcome, item `CN1CCN(C(=S)N(C(=O)c2ccc(Cl)cc2)C2CCCCC2)CC1`
inactive

So what was the verdict on `Cn1cnc([N+](=O)[O-])c1Sc1nc(N)nc2c1ncn2Cc1ccccc1` in this test?
inactive

I'd appreciate the recorded outcome for `CCCCNc1nc2ccccc2c2c1ncn2CC(C)C` from this test.
inactive

Hello, I am checking results. What call was entered for COc1nc(SC)nc2c1C(O)n1c(nc3ccccc31)S2 (stereo not drawn) ?
inactive

====

Tested on: UO-31
measurementNotes: NCI tumour cell line growth inhibition, 48 h
Active and inactive are the calls of the source. No stated cut-off is given here; in the data, active = GI50 up to about 1.1 µM and inactive = higher.
Choose one outcome from this list and give only that: yes (1) for active, no (0) for inactive

Returns: the outcome recorded for `C(#C[C@@]12CCC[C@@H]1N(Cc1ccccc1)CO2)c1ccc2c(c1)OCO2` in this assay.
no (0)

Hey, what did the test say about `CC(=O)C(=NNc1ccc(-n2c(C)nc3ccc(Br)cc3c2=O)cc1)C(C)=O` ?
no (0)

Lab log entry: `CCc1ccccc1NC(=O)/C(=N/O)C(C)=O` — outcome as called in the assay?
no (0)

# fetch the recorded call for COC(=O)C(CCSC)NC(=O)Cc1ccc(C(=O)c2ccccc2)cc1 (stereo not given) here
no (0)

In the following, a different compound is considered.
Please let me know the test result on file for `C/C(=N\Nc1nc2ccccc2o1)c1cc2ccccc2cn1` .
yes (1)
